test system: Zika virus NS2B-NS3 protease; test: Primary screen GU AMC qHTS for Zika virus inhibitors (AID 1347154); conditions: Zika NS2B-NS3 unlinked protease, AMC fluorogenic substrate; series mostly up to 54.1 µM; note: nearly all actives have a fitted effect of over 70% in size
Inconclusive results are not listed. Activity calls are given as the source filed them. Calls come from the whole dose curve; as a rule, active = well fitted inhibition curve with a large enough effect; inconclusive = small, poorly fitted or top-dose-only effect; inactive = flat fitted curve, though single readings scatter.
# output must be one of 1 = active, -1 = inactive

Consider the following illustrative entries.
Cc1c(C(=O)Nc2ccc(N3C[C@@H](C)O[C@@H](C)C3)nc2)cccc1-c1ccc(OC(F)(F)F)cc1 : -1
CC(C)(O)CC(=O)NCCn1ccc2ncnc(Nc3ccc(Oc4cccc(C(F)(F)F)c4)c(Cl)c3)c21 : -1

API: the following record is the query input.
Input: Kindly provide the recorded test outcome for the following compound: CC[C@H](NC(=O)[C@H](C)NC)C(=O)N1C[C@@H](O)C[C@H]1Cc1c(-c2[nH]c3cc(F)ccc3c2C[C@H]2C[C@H](O)CN2C(=O)[C@H](CC)NC(=O)[C@H](C)NC)[nH]c2cc(F)ccc12
Output: 1

---

experiment: Quantitative High-Throughput drug screen in 47 multiple myeloma cell lines against the NCATS MIPE library collection: VP6_DJ cell viability assay (AID 1919867); details: ATP luminescence, 48 h; series mostly up to 45.8 µM; note: nearly all actives have a fitted effect of over 40% in size
Results filed as inconclusive are left out. Activity calls are given as the source filed them. Calls come from the whole dose curve; as a rule, active = well fitted cell-killing curve with a large enough effect; inconclusive = small, poorly fitted or top-dose-only effect, or effect the other way; inactive = no such curve, though single readings can be large or run the other way.
Use one of these outcomes when replying: active, inactive

Reference set, count: 3
COC(=O)Nc1ccc(-c2nc(N3CCOCC3)c3cnn(C4CCN(C(=O)OC)CC4)c3n2)cc1 : active
COc1ccc(-c2cc3nccn3c(Nc3ncccc3C(N)=O)n2)cc1OC : active
CN[C@@H]1[C@@H](O)[C@@H](O[C@@H]2[C@@H](O)[C@H](O[C@H]3O[C@H](CN)[C@@H](O)[C@H](O)[C@@H]3O)[C@@H](N)C[C@@H]2NC(=O)[C@@H](O)CN)OC[C@]1(C)O : inactive

Input: Called result for CN1CCc2c(n(Cc3ccc(C(=O)NO)cc3)c3ccccc23)C1
Output: active

---

assay: qHTS Screen of the MIPE 4.0 Collection Against Ewings Sarcoma (TC71) (AID 1259253); details: TC71 Ewing sarcoma viability, CellTiter-Glo, 48 h; series mostly up to 45.8 µM; note: nearly all actives have a fitted effect of over 40% in size
Results filed as inconclusive are left out. Active and inactive are the calls of the source. The call rests on the fitted dose curve; in most records, active means well fitted inhibition curve with a large enough effect; inconclusive means small, poorly fitted or top-dose-only effect; inactive means no such curve, though single readings can be large or run the other way.
Outcome (select one): YES = active, NO = inactive

Reference set, count: 10
Cc1nc(C(=O)NCC(=O)O)c(O)c2ccc(Oc3ccccc3)cc12 : NO
O=C(NCCCCN1CCOCC1)c1cc2ccccc2o1 : NO
CC[C@H](C)n1cc(C)c2c(C(=O)NCc3c(C)cc(C)[nH]c3=O)cc(-c3ccc(N4CCNCC4)nc3)cc21 : YES
c1cc(OCCN2CCCCC2)cc(-c2n[nH]c3ccc(-c4ncn[nH]4)cc23)c1 : YES
CN(C)CCN(Cc1ccc(Cl)cc1)c1ccccn1 : YES
CCCCC(C=O)NC(=O)C(CC(C)C)NC(=O)OCc1ccccc1 (stereo not drawn) : NO
CNC(=O)c1cc(COc2nnc(Nc3ccc(Cl)cc3)c3ccoc23)ccn1 : NO
CC(C)(O)CC(=O)NCCn1ccc2ncnc(Nc3ccc(Oc4cccc(C(F)(F)F)c4)c(Cl)c3)c21 : YES
O=C(c1ccc(C=Cc2n[nH]c3ccccc23)cc1)N1CCNCC1 : YES
Cc1cnc(-c2cc(N3CCN(C(=O)CCS(C)(=O)=O)CC3)ncc2Cl)c(C)c1 : NO

Input: Could you kindly confirm the outcome this assay logged for Cc1cnc(CNC(=O)c2c(=O)c3ccc(N4CCCN(C)CC4)nc3n3c2sc2ccccc23)cn1 ?
Output: YES

Input: Which outcome was assigned to O=C(c1ccc(C(=O)N2CCC(N3CCCC3)CC2)c(Nc2ccccc2)c1)N1CCC(N2CCCC2)CC1 in this test?
Output: YES

Input: Per the records of this test, what outcome belongs to CCC(C)SSc1ncc[nH]1 (stereo not drawn) ?
Output: YES

Input: I'd appreciate the recorded outcome for Cc1ccc(C(=O)N(CCCN)[C@@H](c2nc3cc(Cl)ccc3c(=O)n2Cc2ccccc2)C(C)C)cc1 from this test.
Output: YES

Input: What call does the record list for CN[C@@H]1CN(c2ccc3c(=O)c(C(=O)O)cn(-c4nccs4)c3n2)C[C@@H]1OC ?
Output: YES

Input: Hi, do you know how COc1cc2ncnc(Nc3cc(Br)c(O)c(Br)c3)c2cc1OC came out in this test?
Output: YES

Input: Look up the recorded call for CCOC(=O)N1CCN([N+]([O-])=NOc2cc(ON=[N+]([O-])N3CCN(C(=O)OCC)CC3)c([N+](=O)[O-])cc2[N+](=O)[O-])CC1 in this test.
Output: NO

Input: What did this assay record as the result for CC(C)C[C@@H](N)[C@H](O)C(=O)N[C@H](C(=O)N[C@H](C(=O)N[C@@H](CC(=O)O)C(=O)O)C(C)C)C(C)C ?
Output: YES

Input: I'd appreciate the recorded outcome for CC1(COc2ccc3c(c2)ncn3-c2ccc3cccc(N4CCC(N)CC4)c3n2)COC1 from this test.
Output: NO

Input: Check the results log: what was the call for CS(=O)(=O)c1ccc(C2=C(c3ccccc3)C(=O)OC2)cc1 ?
Output: YES

Input: Please indicate how the test categorized Cc1ccc(NC(=O)c2cccc(N(C)C)c2)cc1NC(=O)c1ccc(O)cc1 .
Output: YES

Input: How was CCc1cc(-c2n[nH]c(C)c2-c2ccc3c(c2)OCCO3)c(O)cc1O classified in this test?
Output: YES

Input: Hello, I am checking results. What call was entered for COc1cc2c(cc1OC)CC(=O)N(CCCN(C)C[C@H]1Cc3cc(OC)c(OC)cc31)CC2 ?
Output: YES

Input: So what was the verdict on CON(C)C(=O)N1N=C(c2cc(F)ccc2F)S[C@]1(CCCN)c1ccccc1 in this test?
Output: NO

Input: Assay result, entry c1ccc(-c2oc3ncnc(NC[C@@H]4CCCO4)c3c2-c2ccccc2)cc1 — outcome?
Output: YES

---

experiment: qHTS Assay for Lipid Storage Modulators (AID 1519); settings: Drosophila S3 cells, BODIPY lipid droplet/cell ratio, laser cytometry; at 25.7 µM (top of the series); cells loaded with oleic acid; note: % is set by controls: 0 for no effect and ±100 for the full control effect
Results filed as inconclusive are left out. The source made the active and inactive calls. Calls follow the shape of the full dose curve.
measure name: activity change, negative = inhibition

Input: Query (compound): NCC1CCC(C(=O)O)CC1 (centres undefined) ; field requested: activity change, negative = inhibition
Output: -1.26% (inactive)

Input: May I ask what activity change, negative = inhibition has been recorded for CN[C@H]1[C@@H](O[C@@H]2[C@H](O[C@@H]3[C@@H](O)[C@@H](O)[C@@H](N=C(N)N)[C@@H](O)[C@@H]3N=C(N)N)O[C@H](C)[C@@]2(O)C=O)O[C@@H](CO)[C@@H](O)[C@H]1O ?
Output: -5.41% (inactive)

Input: Which activity change, negative = inhibition value belongs to CN(C)CCN(Cc1ccc(Cl)cc1)c1ccccn1 ?
Output: -3.62% (inactive)

Input: Requested read-out: activity change, negative = inhibition. Entry: CCC(=C(CC)c1ccc(O)cc1)c1ccc(O)cc1
Output: -5.29% (inactive)

---

test system: NIH3T3; assay: Cytotoxic Profiling of Annotated Libraries Using Quantitative High-Throughput Screening (AID 1296008); settings: Five cell lines viability, CellTiter-Glo ATP luminescence, 48-72 h; stronger effect = lower value; note: % is set by controls: 0 for no effect and ±100 for the full control effect; nearly all actives have a fitted effect of over 60% in size
Results filed as inconclusive are left out.
measure name: max response (%)
Value expressed in %; do not type the unit.

CN1c2ccccc2C(=O)N2CCc3c([nH]c4ccccc34)C21 (stereo not given) : -8.68
O=S(=O)(NCCNCC=Cc1ccc(Br)cc1)c1cccc2cnccc12 : -13.9
CCCC1OC2C[C@@H]3[C@H]4CCC5=CC(=O)C=C[C@]5(C)[C@H]4C(O)C[C@]3(C)[C@]2(C(=O)CO)O1 (stereo not given in full) : -21.2
N#CC(c1ccc(Cl)cc1)c1c(Cl)cc(-n2ncc(=O)[nH]c2=O)cc1Cl (stereo not given) : -0.315

With those in mind, consider the next compound.
Input: For COC(=O)[C@H](c1ccccc1Cl)N1CCc2sccc2C1 , what is its reported max response?
Output: -0.568

---

assay: Quantitative High-Throughput drug screen in 47 multiple myeloma cell lines against the NCATS MIPE library collection: OCIMY1_PLB cell viability assay (AID 1918979); conditions: OCI-MY1 myeloma viability, CellTiter-Glo ATP, 48 h; series mostly up to 45.8 µM; note: nearly all actives have a fitted effect of over 35% in size;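 for viability: 100% = DMSO-only wells and 0% = cell-free media-only wells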
Records with an inconclusive call do not appear. Calls of active or inactive are those of the source. Calls follow the shape of the dose curve; as a rule, active = well fitted cell-killing curve with a large enough effect; inconclusive = small, poorly fitted or top-dose-only effect, or effect the other way; inactive = no such curve, though single readings can be large or run the other way.
Answer with one of the outcomes Y = active, N = inactive

Check out these entries, answers already filled in.
CC1(C)OC2CC3C4CC(F)C5=CC(=O)C=CC5(C)C4C(O)CC3(C)[C@]2(C(=O)CO)O1 (stereo partly specified) : N
CC1(C)[C@H]2CC[C@]3(C)[C@@H](C(=O)C=C4[C@@H]5C[C@@](C)(C(=O)O)CC[C@]5(C)CC[C@]43C)[C@@]2(C)CC[C@@H]1O : N
CN(C)c1nc(Cc2ccc(NC(=O)c3ccc(C(F)(F)F)cc3)cc2)nc(N(C)C)c1CC(=O)O : N
CCOC(=O)[C@H]1O[C@H]1C(=O)N[C@@H](CC(C)C)C(=O)NCCC(C)C : N
C[C@H]1O[C@@H](n2cc(F)c(=O)[nH]c2=O)[C@H](O)[C@H]1O : N

Would you kindly look at the next entry?
Input: Hey, what did the test say about CC(=O)NCCC(=O)N[C@@H](CCC(N)=O)C(=O)N[C@@H](CO)C(=O)N[C@@H](CCC(N)=O)C(=O)N[C@@H](CCC(N)=O)C(=O)N[C@H](C(=O)N[C@@H](Cc1ccccc1)C(=O)N[C@]1(C)CCCCCCC=CCCC[C@@](C)(C(=O)N[C@@H](CCC(N)=O)C(=O)N[C@@H](CC(N)=O)C(N)=O)NC(=O)[C@H](CC(C)C)NC(=O)[C@H](CC(C)C)NC(=O)[C@@H](CCCNC(=N)N)NC(=O)[C@H](Cc2c[nH]c3ccccc23)NC(=O)[C@H](CC(C)C)NC(=O)[C@H](CC(N)=O)NC1=O)[C@H](C)O ?
Output: Y

Each recorded value in this set is attributed to PubChem BioAssay (NCATS).
